- System: Hedgehog pathway
- method: C3H10T1/2 differentiation assay (alkaline phosphatase), inhibition of the Hedgehog pathway in cell culture
- Type: cell-based
- testConditions: Mus musculus, C3H 10T1/2; C3H10T1/2 cells, sonic Hedgehog 250 ng/ml, AP activity normalized against total protein; approximate; read-out: Differentiation Assay EC50 (Approximate EC50 for Inhibition)
- Text: Hedgehog pathway specific cancer cell killing effects may be ascertained using the following assay. C3H10T1/2 cells differentiate into osteoblasts when contacted with the sonic hedgehog peptide (Shh-N). Upon differentiation; these osteoblasts produce high levels of alkaline phosphatase (AP) which can be measured in an enzymatic assay (Nakamura et al., 1997 BBRC 237: 465). […]
assayEndpoint: EC50

Field: example entries. Status: answers known.
>  <compound>
C[C@H]1C[C@H]2O[C@]3(CC[C@H]4[C@@H]5CC=C6C[C@@H](O)CC[C@]6(C)[C@H]5CC45CC53C)[C@H](C)[C@@H]2N(CCNC(=O)CCCCCNC(=O)CCc2ccccc2)C1 (stereo partly drawn)

>  <measuredValue>
< 200 nM

$$$$
>  <compound>
COCCOCCN1C[C@@H](C)C[C@H]2O[C@]3(CC[C@@H]4C(=C(C)C3)C[C@H]3C4CCC4=CC(=O)CC[C@@]43C)[C@H](C)[C@@H]21 (stereo partly drawn)

>  <measuredValue>
< 200 nM

$$$$

Lookup: Give EC50 only, for `COCCOCCN1C[C@@H](C)C[C@H]2O[C@]3(CC[C@@H]4C(=C(C)C3)C[C@H]3[C@H]4CCC4=CC(=O)CC[C@@]43C)[C@H](C)[C@@H]21` , using Hedgehog pathway data.
Found: < 200 nM

====

Each entry below carries its recorded EC50.
- System: Hedgehog pathway
- method: C3H10T1/2 differentiation assay (alkaline phosphatase), inhibition of the Hedgehog pathway in cell culture
- Assay type: cell-based
- testConditions: Mus musculus, C3H 10T1/2; C3H10T1/2 cells, sonic Hedgehog 250 ng/ml, AP activity normalized against total protein; approximate; read-out: Differentiation Assay EC50 (Approximate EC50 for Inhibition)

Answered examples (3):
>  <compound>
CC1=C2C[C@H]3[C@@H](CCC4=CC(=O)CC[C@@]43C)[C@@H]2CC[C@@]2(C1)O[C@@H]1C[C@H](C)CN(Cc3ccc(Oc4ccccc4)cc3)[C@H]1[C@H]2C [Compound 37]

>  <measuredValue>
> 500 nM

$$$$
>  <compound>
C[C@H]1C[C@H]2O[C@]3(CC[C@H]4[C@@H]5CCC6=CC(=O)CC[C@]6(C)[C@H]5CC45CC53C)[C@H](C)[C@@H]2N(CCNC(=O)CCCCCNC(=O)CCc2ccccc2)C1 (stereo partly drawn) [Compound 17]

>  <measuredValue>
< 200 nM

$$$$
>  <compound>
CC1=C2C[C@H]3C(CC=C4C[C@@H](O)CC[C@@]43C)[C@@H]2CC[C@@]2(C1)O[C@@H]1C[C@H](C)CN(CCCl)[C@H]1[C@H]2C (stereo partly drawn) [Compound 27]

>  <measuredValue>
> 500 nM

$$$$

Lookup: For CC1=C2C[C@H]3C(CCC4=CC(=O)CC[C@@]43C)[C@@H]2CC[C@@]2(C1)O[C@@H]1C[C@H](C)CN(CCCl)[C@H]1[C@H]2C (stereo partly drawn) [Compound 28] , write its EC50.
Found: > 500 nM

Lookup: Note EC50 for the compound shown: CC1=C2C[C@H]3[C@@H](CCC4=CC(=O)CC[C@@]43C)[C@@H]2CC[C@@]2(C1)O[C@@H]1C[C@H](C)CN(CCNS(=O)(=O)CCc3ccccc3)[C@H]1[C@H]2C [Compound 24]
Found: 200 to 500 nM

Lookup: # return recorded EC50 for input CC1=C2C[C@H]3[C@@H](CCC4=CC(=O)CC[C@@]43C)[C@@H]2CC[C@@]2(C1)O[C@@H]1C[C@H](C)CN(Cc3ccccc3)[C@H]1[C@H]2C [Compound 35]
Found: < 200 nM
